Listed below: Post-emerge Herbicidal Activity, phytotoxicity rating ECHCG values for each entry.
Test system: barnyardgrass (Echinochloa crus-galli, ECHCG)
Test: Post-emerge test, greenhouse herbicide activity screening
Type: in vivo
Details: Rate 250 g ai/ha; rating scale 0-100 (0 no damage, 100 complete death); 14 days after application
Measured metric: Post-emerge Herbicidal Activity, phytotoxicity rating ECHCG

1) COc1c(Cl)cc(F)c(-n2c(=O)cc(C(F)(F)F)n(C)c2=O)c1CC(C)(Cl)C(=O)OC(C(F)(F)F)C(F)(F)F (stereo not drawn) [14-46] | 100
2) O=C(Nc1cc(Cl)ccc1N1C(=O)c2ccccc2C1=O)c1ccc2ccccc2c1 [Compound 13-5] | 0
3) COc1c(Cl)cc(F)c(-n2c(=O)cc(C(F)(F)F)n(C)c2=O)c1CC(C)(Cl)C(=O)OCCSC (stereo not drawn) [14-48] | 100
4) COc1c(Cl)cc(F)c(-n2c(=O)cc(C(F)(F)F)n(C)c2=O)c1CC(C)(Cl)C(=O)OCC(F)(F)C(F)F (stereo not drawn) [14-45] | 100
5) CCCOC(=O)C(Cl)Cc1c(OC)c(Cl)cc(F)c1-n1c(=O)cc(C(F)(F)F)n(C)c1=O (single isomer, unassigned) [14-7] | 100
6) CCCOC(=O)C(C)(Cl)Cc1c(OC)c(Cl)cc(F)c1-n1c(=O)cc(C(F)(F)F)n(C)c1=O (stereo not drawn) [14-35] | 100
7) CCOC(=O)C(Cl)Cc1c(C)c(Cl)cc(F)c1-n1c(=O)cc(C(F)(F)F)n(C)c1=O (stereo not drawn) [14-54] | 30
8) COc1c(Cl)cc(F)c(-n2c(=O)cc(C(F)(F)F)n(C)c2=O)c1CC(Cl)C(=O)OCC(F)(F)C(F)(F)C(F)(F)F (single isomer, unassigned) [14-23] | 100
9) COc1c(Cl)cc(F)c(-n2c(=O)cc(C(F)(F)F)n(C)c2=O)c1CC(Cl)C(=O)OCC(F)(F)C(F)(F)C(F)(F)F (single isomer, unassigned) [14-24] | 100
10) C=COC(=O)C(C)(Cl)Cc1c(OC)c(Cl)cc(F)c1-n1c(=O)cc(C(F)(F)F)n(C)c1=O (stereo not drawn) [14-42] | 100
11) CCOC(=O)CCc1c(OC)c(Cl)cc(F)c1-n1c(=O)cc(C(F)(F)F)n(C)c1=O [14-1] | 95
12) C#CCOC(=O)C(C)(Cl)Cc1c(OC)c(Cl)cc(F)c1-n1c(=O)cc(C(F)(F)F)n(C)c1=O (stereo not drawn) [14-44] | 100

----------
Test system: lambsquarters (Chenopodium album, CHEAL)
Assay: Pre-emerge test, greenhouse herbicide activity screening
Assay type: in vivo
Conditions: pre-emerge, 250 g ai/ha, 14 days after application, rating scale 0-100
Measured metric: phytotoxicity rating CHEAL

1) COc1c(Cl)cc(F)c(-n2c(=O)cc(C(F)(F)F)n(C)c2=O)c1CC(C)(Cl)C(=O)OCC1CCCO1 (stereo not drawn) | 100
2) COc1c(Cl)cc(F)c(-n2c(=O)cc(C(F)(F)F)n(C)c2=O)c1NN=C(C(F)(F)F)C(F)(F)F | 100
3) O=c1cc(C(F)(F)F)[nH]c(=O)n1-c1c(Cl)cc(C(F)(F)F)cc1Cl [compound 2, reference compound] | 50

----------
System: field corn (Zea mays L., var. Dekalb 535, CORN)
Assay: Pre-emerge test, crop safety
Assay type: in vivo
Conditions: 63 g ai/ha; rating scale 0-100, 14 days after application
Protocol: A standard greenhouse herbicide activity screening system was used to evaluate the herbicidal efficacy and crop safety of these test compounds. […] At 14 days after application of the test materials, phytotoxicity ratings were recorded. […]
Measured metric: Pre-emerge phytotoxicity rating, crop damage CORN

1. CCCOC(=O)C(Cl)Cc1c(OC)c(Cl)cc(F)c1-n1c(=O)cc(C(F)(F)F)n(C)c1=O (single isomer, unassigned) [14-7] | 10
2. COc1c(Cl)cc(F)c(-n2c(=O)cc(C(F)(F)F)n(C)c2=O)c1CC(C)(Cl)C(=O)OC(C(F)(F)F)C(F)(F)F (stereo not shown) | 0
3. CCCCOC(=O)C(Cl)Cc1c(OC)c(Cl)cc(F)c1-n1c(=O)cc(C(F)(F)F)n(C)c1=O (single isomer, unassigned) [14-9] | 0
4. C#CCOC(=O)C(C)(Cl)Cc1c(OC)c(Cl)cc(F)c1-n1c(=O)cc(C(F)(F)F)n(C)c1=O (stereo not shown) | 0

----------
Test system: upland rice (Oryza sp., var. Tebonnet, RICE)
Assay: Post-emerge test, crop safety
Assay type: in vivo
Settings: 63 g ai/ha; phytotoxicity rating 0-100 (0 no damage, 100 complete death), 14 days after application
Listed below: Post-emerge Herbicidal Activity RICE (crop damage) values for each entry.
Measured metric: Post-emerge Herbicidal Activity RICE (crop damage)

1. COC(=O)C(=O)Nc1c(OC)c(Cl)cc(F)c1-n1c(=O)cc(C(F)(F)F)n(C)c1=O [2-15] | 0
2. C=C(C)C(=O)Nc1c(OC)c(Cl)cc(F)c1-n1c(=O)cc(C(F)(F)F)n(C)c1=O [2-5] | 30
3. COc1c(Cl)cc(F)c(-n2c(=O)cc(C(F)(F)F)n(C)c2=O)c1N=CN(C)C [Compound 1-31] | 0
4. CCc1ccc(C(=O)Nc2c(OC)c(Cl)cc(F)c2-n2c(=O)cc(C(F)(F)F)n(C)c2=O)cc1 [2-27] | 60
5. CCOC(=O)CC(=O)Nc1c(OC(=O)CC(=O)OCC)c(Cl)cc(F)c1-n1c(=O)cc(C(F)(F)F)n(C)c1=O [2-16] | 40
6. CCOC(=O)C(C)Oc1c(Cl)cc(F)c(-n2c(=O)cc(C(F)(F)F)n(C)c2=O)c1N (centres unmarked) [Compound 1-60] | 10
7. COc1c(Cl)cc(F)c(-n2c(=O)cc(C(F)(F)F)n(C)c2=O)c1N(C(=O)C1CC1)C(=O)C1CC1 [2-18] | 0
8. Cn1c(C(F)(F)F)cc(=O)n(-c2c(F)cc(Cl)c(OCC#N)c2N)c1=O [Compound 1-18] | 0

----------
System: upland rice (Oryza sp., var. Tebonnet, RICE)
Assay: Post-emerge test, crop safety
Assay type: in vivo
Details: post-emerge, 250 g ai/ha, crop damage rating 0-100 at 14 days after application
Listed below: Post-emerge Herbicidal Activity RICE values for each entry.
Measured metric: Post-emerge Herbicidal Activity RICE

1. C#CCOc1c(Cl)cc(F)c(-n2nnn(CCCF)c2=O)c1N [Compound 5-17] | 50
2. COc1c(Cl)cc(F)c(-n2c(=O)n3n(c2=O)CCCC3)c1NC(=O)c1ccc(F)cc1F [9-16] | 70
3. Cc1c(Cl)cc(F)c(-n2c(=O)cc(C(F)(F)F)n(C)c2=O)c1NC(=O)OCc1cccc([N+](=O)[O-])c1 [4-67] | 70
4. C=Cc1ccc(C(=O)Nc2c(OC)c(Cl)cc(F)c2N2C(=O)C3=C(CCCC3)C2=O)cc1 [8-30] | 35
5. COc1c(Cl)cc(F)c(N2C(=O)C3=C(CCCC3)C2=O)c1N [8-7] | 90
6. COc1c(Cl)cc(F)c(N2C(=O)c3ccccc3C2=O)c1NC(=O)c1ccc(F)cc1F [13-4] | 50
7. Cc1nn(-c2c(Cl)cc(Cl)cc2NC(=O)c2ccc(F)cc2F)c(=O)n1C(F)F [Compound 6-13] | 30
8. Cc1c(Cl)cc(F)c(-n2c(=O)cc(C(F)(F)F)n(C)c2=O)c1NC(=O)SCc1ccccc1 [4-66] | 70

----------
Listed below: Post-emerge Herbicidal Activity, phytotoxicity rating CASOB values for each entry.
Tested on: sicklepod (Cassia obtusifolia, CASOB)
Assay: Post-emerge test, greenhouse herbicide activity screening
Format: in vivo
Conditions: Rate 63 g ai/ha; rating scale 0-100 (0 no damage, 100 complete death); 14 days after application
Measured metric: Post-emerge Herbicidal Activity, phytotoxicity rating CASOB

1) COCCOC(=O)C(Cl)Cc1c(OC)c(Cl)cc(F)c1-n1c(=O)cc(C(F)(F)F)n(C)c1=O (centres unmarked) | 50
2) C#CCOC(=O)C(Cl)Cc1c(OC)c(Cl)cc(F)c1-n1c(=O)cc(C(F)(F)F)n(C)c1=O (single isomer, unassigned) | 40
3) CCCOC(=O)C(Cl)Cc1c(OC)c(Cl)cc(F)c1-n1c(=O)cc(C(F)(F)F)n(C)c1=O (single isomer, unassigned) | 0
4) CCCOC(=O)C(C)(Cl)Cc1c(OC)c(Cl)cc(F)c1-n1c(=O)cc(C(F)(F)F)n(C)c1=O (centres unmarked) | 0
5) CCCCCOC(=O)C(C)(Cl)Cc1c(OC)c(Cl)cc(F)c1-n1c(=O)cc(C(F)(F)F)n(C)c1=O (centres unmarked) | 20
6) CCOC(=O)C(Br)Cc1c(OC)c(Cl)cc(F)c1-n1c(=O)cc(C(F)(F)F)n(C)c1=O (single isomer, unassigned) | 20
7) COc1c(Cl)cc(F)c(-n2c(=O)cc(C(F)(F)F)n(C)c2=O)c1CC(C)(Cl)C(=O)OCc1ccccc1 (centres unmarked) | 0
8) CCCCOC(=O)C(Cl)Cc1c(OC)c(Cl)cc(F)c1-n1c(=O)cc(C(F)(F)F)n(C)c1=O (single isomer, unassigned) | 0
9) COc1c(Cl)cc(F)c(-n2c(=O)cc(C(F)(F)F)n(C)c2=O)c1CC(C)(Cl)C(=O)OC(C(F)(F)F)C(F)(F)F (centres unmarked) | 60
10) COc1c(Cl)cc(F)c(-n2c(=O)cc(C(F)(F)F)n(C)c2=O)c1CC(Cl)C(=O)OCCOc1ccccc1 (single isomer, unassigned) | 50
11) CCOC(=O)C(Cl)Cc1c(OC)c(Cl)cc(F)c1-n1c(=O)cc(C(F)(F)F)n(C)c1=O (single isomer, unassigned) | 50
